# MEASUREMENT DESCRIPTION: soluble on expression in E. coli; label from the status in PepcDB or PDB records
ASSAY ENDPOINT: soluble on expression in E. coli

- MPDSMSEQLRRDMQCEGLLECFHGLKELDKECFRALVEAEEPLTVDELADAVDRERSTAYRAVQRLLQTGFIEKDQINYDQGGYYHVYSPTDPSQIADEMQRMLNDWYAKMGQLIQEFENKYEQSESTAPTVES: soluble
- LPTSNPAQELEARQLERTTRDDLINGNSASCADVIFIYARGSTEAGNLGTLGPSIASNLESAFGKDGVWIQGVGGAYRATLGDNALPRGTSSAAIREMLGLFQQANTKCPDATLIAGGYSQGAALAAASIEDLDSAIRDKIAGTVLFGYTKNLQNRGRIPNYPADRTKVFCNTGDLVCTGSLIVAAPHLAYGPDARGPAPEFLIEKVRAVRGSA: soluble
